# assayNotes: inhibitors of intracellular T. cruzi replication, confirmation, NIH3T3 host cells, beta-gal luminescence (AID 2044);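 note: intracellular parasites grown in NIH/3T3 mouse fibroblasts as host cells; luminescent beta-galactosidase reporter signal from transgenic T. cruzi replicating inside host cells; inhibitors lower the luminescence signal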
# Format: functional, cell-based
Activity calls are given as the source filed them. Cut-off read from the data, not from the text of the source: actives have a measured EC50 and inactives only a lower limit.
We begin with a simple list: items and their reported EC50.

// worked examples, EC50 included
Dear colleague, I am looking for the recorded EC50 of the following molecule: `CCOC(=O)c1c(NC(C)=O)sc2c(OCCN(CC)CC)c(Br)ccc12`
1580 nM (active)

Dear colleague, I am looking for the recorded EC50 of the following molecule: `CCN(CC)S(=O)(=O)c1cc([N+](=O)[O-])ccc1NNC(=O)Nc1ccc(Cl)c(Cl)c1`
2030 nM (active)

Dear colleague, I am looking for the recorded EC50 of the following molecule: `COc1ccc(-c2nc(C#N)c(NCc3cccnc3)o2)cc1OC`
1800 nM (active)

---
Dear colleague, I am looking for the recorded EC50 of the following molecule: `O=C(Nc1ccc2[nH]c(-c3ccc(Br)o3)nc2c1)c1cccs1`
3180 nM (active)

Dear colleague, I am looking for the recorded EC50 of the following molecule: `Cc1ccc(C(=O)NCCc2nc3ccccc3[nH]2)cc1[N+](=O)[O-]`
1030 nM (active)

Dear colleague, I am looking for the recorded EC50 of the following molecule: COC(=O)CNC(c1ccccc1)c1cc(Br)ccc1NC(=O)CCN1CCOCC1 (stereo not given)
6700 nM (active)

Dear colleague, I am looking for the recorded EC50 of the following molecule: COc1ccccc1C(=O)C1CCCN(Cc2c[nH]nc2C2CCCCC2)C1 (stereo not given)
604 nM (active)

Dear colleague, I am looking for the recorded EC50 of the following molecule: `COc1ccc(-n2nc(C(=O)c3cccs3)cc(-c3nc4ccccc4[nH]3)c2=N)cc1`
531 nM (active)

Dear colleague, I am looking for the recorded EC50 of the following molecule: `Cn1nc(-c2ccc(N3CCCCC3)c(NC(=O)c3ccco3)c2)c2ccccc2c1=O`
1230 nM (active)

Dear colleague, I am looking for the recorded EC50 of the following molecule: `CN(C)CCCN(C(=O)c1ccco1)c1nc2cc3c(cc2s1)OCO3`
< 100 nM (active)
